# Assay Remarks: NCI Yeast Anticancer Drug Screen. Data for the mec2-1 strain (AID 157)
# Measurement Context: S. cerevisiae mec2-1 strain, at 50.0 µM (retest, dose inferred, filed as 5.0), active compounds read high
About 79,000 compounds went through this panel and 15% of them were active in at least one assay; those are over-represented in the sample as a whole.
Would you please tag the item criterion met when its growth inhibition is 60% or above, and criterion not met when it is below?

# Molecule, Classification
data = [
    ("CC(C)N(CCO)CC(O)Cn1cnc2c(N)ncnc21 (stereo unspecified) (tested in a mixture with another compound)", "criterion not met"),
    ("CCCCCCC(/C=C/c1c(Cl)cccc1Cl)=N\\O", "criterion not met"),
    ("COC1CC(C)(NC(C)=O)C2OC(c3ccccc3)OCC2O1 (stereo unspecified)", "criterion not met"),
    ("CCCCCCCCCCCCCCNCC(OCC)OCC", "criterion met"),
    ("O=C1C=C(O)c2cc(Br)ccc2C1=O.[Ag]", "criterion met"),
    ("COc1ccc2c(C)cc(N/N=C/c3cccc(C)n3)nc2c1", "criterion not met"),
    ("O=[N+]([O-])C1=Cc2cc(Cl)ccc2OC1c1cccc2ccccc12 (stereo unspecified)", "criterion met"),
    ("O=S(=O)(CCNCCCCC1CCCCC1)SCCNCCCCC1CCCCC1", "criterion met"),
    ("CC1(C)CC(O)C(O)C1 (stereo unspecified)", "criterion not met"),
    ("COc1ccc2cc3c4cc(OC)c(OC)cc4ccn3c2c1", "criterion not met"),
    ("CCc1cc2c(cc1O)CC[C@@H]1[C@@H]2CC[C@]2(C)[C@@H](O)CC[C@@H]12", "criterion met"),
]

###

# Assay Remarks: NCI Yeast Anticancer Drug Screen. Data for the rad50 strain (AID 155)
# Measurement Context: S. cerevisiae rad50 strain growth inhibition; at 50.0 µM
About 79,000 compounds went through this panel and 15% of them were active in at least one assay; those are over-represented in the sample as a whole. The source made the active and inactive calls. No stated cut-off is given here; in the data, active means growth inhibition above about 70%; inactive means the rest. Where a SMILES comes first, the peptide text is derived from it. The star is where a group is joined. Trt = c1ccc(C(c2ccccc2)(c2ccccc2)*)cc1; OtBu = CC(C)(C)O*
Possible outcomes: active, inactive

# Compound, Classification
data = [
    ("[O-][n+]1c2ccccc2nc2cc(Cl)ccc21", "active"),
    ("CN(C)N=Nc1c(-c2ccccc2)n[nH]c1-c1ccccc1", "active"),
    ("O=C(Nc1ccc(Br)cc1)c1cc(Br)c(O)c(Br)c1O", "inactive"),
    ("C[C@]12CCC(=O)C=C1CC[C@@H]1[C@@H]2[C@@H](O)C[C@@]2(C)[C@H]1CC[C@]2(O)C(=O)COC(=O)CCC1CCCC1", "active"),
    ("Cc1ccc(C)c2[nH]c(-c3ccccc3)cc12", "active"),
    ("CC(C)(C)OC(=O)CNC(=O)C(Cc1ccccc1)NC(=O)C(N)CSC(c1ccccc1)(c1ccccc1)c1ccccc1 (stereo not drawn) (H-Cys(Trt)-Phe-Gly-OtBu; configuration not given here)", "inactive"),
    ("CCCOC1=C(Cl)C(=O)c2cccc([N+](=O)[O-])c2C1=O", "active"),
    ("Nc1cc(Cl)c2c(c1)Cc1ccccc1-2", "active"),
    ("Oc1ccc(-c2ccccc2)cc1Cl", "active"),
    ("CC1=C(C(=O)OCCc2ccc([N+](=O)[O-])cc2)C(c2ccccc2[N+](=O)[O-])C(C(=O)OC(C)C)=C(C)N1 (stereo unspecified)", "inactive"),
    ("NC(N)=Nc1ccc(C(=O)Oc2c(Cl)cc([N+](=O)[O-])cc2Cl)cc1", "inactive"),
    ("CCCCCCCCCCCCCCOS(=O)(=O)O", "active"),
    ("N#CC1CCCC(Cc2ccccc2)(c2ccccc2)C1=O (stereo unspecified)", "active"),
    ("O=C1c2ccc(Cl)cc2C(=O)c2cc(Cl)ccc21", "active"),
    ("O=[n+]1c2c(n([O-])c3ccc4ccccc4c31)-c1cccc3cccc-2c13", "inactive"),
    ("Brc1cc2c(c(Br)c1Br)C(Br)(Br)C(c1ccccc1)=N2", "active"),
    ("OC(Cc1cccnc1)(c1ccccc1)c1ccc(Cl)cc1 (stereo unspecified)", "active"),
    ("[Cl][Sn]([CH2][CH2][Sn]([Cl])([c]1ccccc1)[c]1ccccc1)([c]1ccccc1)[c]1ccccc1", "active"),
    ("Oc1cccc2ccc(SSc3ccc4cccc(O)c4n3)nc12", "active"),
    ("CCN(CC)CCOc1c(I)cc(I)cc1I", "active"),
    ("CCCCCCCCCCCCCCC(=O)OCC[N+](C)(C)C", "active"),
    ("CC(Nc1ccc(Cl)c(Cl)c1)c1ccncc1 (stereo unspecified)", "active"),
    ("COc1ccc(N=NN(C)C)cc1", "active"),
    ("CC(/C=C1\\CCC(CN(C)C)C1=O)c1cccc(Br)c1 (stereo unspecified)", "active"),
    ("CC(C)NC(=O)O/N=C1\\CCC2[C@@H]3CC=C4C[C@@H](OC(=O)NC(C)C)CC[C@]4(C)C3CC[C@]12C (stereo partly specified)", "active"),
    ("CCOc1ccc(N=Nc2ccccc2)cc1", "inactive"),
    ("Cc1ccccc1NC(=O)C1C(=O)N(c2ccccc2C)C(=O)/C1=N/O (stereo unspecified)", "inactive"),
    ("C=CCOC(=O)CCC(=O)N(CC)CC", "inactive"),
    ("C/C=C/C/S(=N\\S(=O)(=O)c1ccc(C)cc1)c1ccccc1 (stereo unspecified)", "active"),
    ("O=C1NC(Cc2ccccc2)C(=O)O1 (stereo unspecified)", "inactive"),
    ("OCC(O)C(O)C(O)C(/C=N/Nc1ccccc1)=N\\Nc1ccccc1 (stereo unspecified)", "inactive"),
    ("CC(C(=O)c1ccc2cc(Br)c3ccccc3c2c1)N(C)C (stereo unspecified)", "active"),
    ("CC1Cc2ccc3c(c2C(c2ccc4c(c2)OCO4)C1C)OCO3 (stereo unspecified)", "inactive"),
    ("Cc1ccc(/C=C2\\CCCC(CN3CCCCC3)C2=O)cc1 (stereo unspecified)", "active"),
    ("O=C(CCCN1CCc2[nH]c3cc(F)ccc3c2C1)c1ccc(F)cc1", "active"),
    ("Clc1ccc(CN2COc3c(cc(Cl)c4cccnc34)C2)cc1Cl", "active"),
    ("Oc1cc(Cl)cc2cc(Cl)cnc12", "active"),
    ("CC(N1CCOCC1)C(O)(c1ccccc1)c1ccccn1 (stereo unspecified)", "inactive"),
    ("CCCCSc1nc2c([nH]1)c(=S)n(C)c(=S)n2C", "inactive"),
    ("FC(F)(F)c1[nH]nc(-c2cccs2)c1N=NN1CCOCC1", "active"),
    ("CCCNC(=O)c1ccccc1", "inactive"),
    ("Cc1c(CNc2ccc(Cl)c(Cl)c2Cl)cnc2nc(N)nc(N)c12", "active"),
    ("CC(=O)N1C/C(=C\\c2ccccc2)C(=O)/C(=C/c2ccccc2)C1", "active"),
    ("Cc1[nH]c2ccccc2c1SCc1ccccc1", "active"),
    ("CN(C)Cc1ccc2c(c1)c1c(n2Cc2ccccc2)CCCC1", "active"),
    ("N#Cc1c(N)nc2c(N=Nc3ccccc3)c(N)nn2c1Nc1ccccc1", "inactive"),
]
